- SYSTEM_UNDER_TEST: UniProtKB P19327
- Sequence (P19327 whole entry): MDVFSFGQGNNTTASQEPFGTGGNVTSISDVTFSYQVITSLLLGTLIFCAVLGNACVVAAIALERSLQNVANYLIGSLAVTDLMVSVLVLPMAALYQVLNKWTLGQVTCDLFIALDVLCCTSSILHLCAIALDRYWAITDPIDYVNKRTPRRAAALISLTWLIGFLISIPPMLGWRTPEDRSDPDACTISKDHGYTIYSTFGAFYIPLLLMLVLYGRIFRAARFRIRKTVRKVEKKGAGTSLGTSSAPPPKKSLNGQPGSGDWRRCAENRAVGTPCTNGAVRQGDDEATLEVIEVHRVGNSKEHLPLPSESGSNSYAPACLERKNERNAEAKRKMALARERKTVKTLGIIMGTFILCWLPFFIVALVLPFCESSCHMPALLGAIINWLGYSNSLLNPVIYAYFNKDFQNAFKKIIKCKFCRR
READOUT: Ki (nM)
# value in nM; strip the unit string

Hey, UniProtKB P19327 data for Fc1cccc2c1OC1CNCC1O2 (stereo unspecified) [CAS_105182-45-4] : Ki came out at 631
